I'd be grateful if you could share measured pIC50 for these entries.
# Target or test system: protein-protein interaction between Kras and SOS1 (biotin-tagged human Kras loaded with GDP, His-tagged human SOS1) (Homo sapiens (Human), UniProt P01116, G12D)
# Assay text: Protein-protein interaction inhibition between Kras and SOS1 (KrasG12D-SOS PPI) using AlphaScreen;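 also: kras produced in E. coli, Ni-coupled donor beads and streptavidin acceptor beads, excitation 680 nm with emission detected at 520–620 nm via singlet oxygen transfer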
# Assay type: biochemical
# Measurement setup: AlphaScreen; biotin-tagged human Kras loaded with GDP, His-tagged human SOS1; read-out: KRAS G12D-SOS PPI IC50
Bridge positions count the residues as written; N and C are the ends. Square brackets hold non-standard residues; d marks the D form. Peptide text beside a SMILES is read from it. * marks the point of attachment. hPhe(3-Cl-4-CF3) = N[C@@H](CCc1ccc(C(F)(F)F)c(Cl)c1)C(=O)O; NMePhe(4-CF3) = CN[C@@H](Cc1ccc(C(F)(F)F)cc1)C(=O)O; NMeCha = CN[C@@H](CC1CCCCC1)C(=O)O; Hyp = O=C(O)[C@@H]1C[C@@H](O)CN1; NMeI = CC[C@H](C)[C@H](NC)C(=O)O; NMeT = CN[C@H](C(=O)O)[C@@H](C)O; NMeD = CN[C@@H](CC(=O)O)C(=O)O; NMeL = CN[C@@H](CC(C)C)C(=O)O; NMeV = CN[C@H](C(=O)O)C(C)C; NMeA = CN[C@@H](C)C(=O)O; Piperidide = C1CCN(*)CC1; Pyrrolidide = C1CCN(*)C1; Ac5c = NC1(C(=O)O)CCCC1; Aze = O=C(O)[C@@H]1CCN1; Sar = CNCC(=O)O
Recall that pIC50 is obtained by taking minus log10 of the concentration measured in molar.

Asked: Please supply the value of reported pIC50 for the item CC[C@H](C)[C@@H]1NC(=O)[C@H]([C@@H](C)O)N(C)C(=O)C[C@@H](C(=O)N2CCCCC2)N(C)C(=O)[C@H](C(C)C)N(C)C(=O)C2(CCCC2)NC(=O)[C@@H]2CCCN2C(=O)[C@H](CCc2ccc(C(F)(F)F)c(Cl)c2)NC(=O)CN(C)C(=O)[C@H](CC2CCCCC2)N(C)C(=O)[C@@H]2CCN2C(=O)[C@H](C)N(C)C1=O [Compound 91] ([NMeT]I[NMeA][Aze][NMeCha][Sar][hPhe(3-Cl-4-CF3)]P[Ac5c][NMeV][NMeD]-Piperidide; lactam N-11)
Given back: 8.82

Asked: Please supply the value of reported pIC50 for the item CCO[C@@H]1C[C@H]2C(=O)NC3(CCCC3)C(=O)N(C)[C@@H]([C@@H](C)CC)C(=O)N(C)[C@H](C(=O)N3CCCC3)CC(=O)N(C)[C@@H](CC(C)C)C(=O)N[C@@H]([C@@H](C)CC)C(=O)N(C)[C@@H](C)C(=O)N3CC[C@H]3C(=O)N(C)[C@@H](Cc3ccc(C(F)(F)F)cc3)C(=O)N(C)CC(=O)N[C@@H](CCc3ccc(C(F)(F)F)c(Cl)c3)C(=O)N2C1 [Compound 1335] ([NMeL]I[NMeA][Aze][NMePhe(4-CF3)][Sar][hPhe(3-Cl-4-CF3)][Hyp](Et)[Ac5c][NMeI][NMeD]-Pyrrolidide; lactam N-11)
Given back: 9.31
